Kindly supply the reported IC50 values for the records listed here.
biological target: His-BIR3 (241-356, XIAP) (Homo sapiens (Human), UniProt P98170); test: XIAP-BIR3/SMAC Homogeneous Time Resolved Fluorescence (HTRF) Assay; assay type: binding; details: fluorescein labeled SMAC peptide
Write the numeric value and append its unit.

{"columns": ["Cpd smiles", "System", "Result type", "Result"],
 "data": [
  ["CN[C@@H](C)C(=O)N[C@H](C(=O)N1C[C@@H](NC(=O)c2ccc(C(=O)Nc3ccc4c(c3)CN(C(=O)[C@@H](NC(=O)[C@H](C)NC)C(C)(C)SC)[C@H](C(=O)N[C@@H]3CCCc5ccccc53)C4)cc2)C[C@H]1C(=O)N[C@@H]1CCCc2ccccc21)C(C)(C)C", "His-BIR3 (241-356, XIAP) (Homo sapiens (Human), UniProt P98170)", "IC50", "9 nM"]
]}

Now consider the entry below.
Query block: I have this molecule here, CN[C@@H](C)C(=O)N[C@H](C(=O)N1Cc2cc(C(=O)Nc3nc(C(=O)N[C@H]4C[C@@H](C(=O)N[C@@H]5CCCc6ccccc65)N(C(=O)[C@@H](NC(=O)[C@H](C)NC)C(C)(C)C)C4)co3)ccc2C[C@H]1C(=O)N[C@@H]1CCCc2ccccc21)C(C)(C)C , and I need its recorded IC50.
Result block: 14 nM

====

target: His-BIR2-3 (125-356, C202A/C213G, XIAP) (Homo sapiens (Human), UniProt P98170, C202A/C213G); test: XIAP-BIR2-3 Dimeric SMAC Peptide Homogeneous Time Resolved Fluorescence (HTRF) Assay; details: fluorescein labeled dimeric SMAC peptide
Result type: IC50 (nM)
Answers are plain numbers, in nM.

See these solved cases before continuing.
{"columns": ["Compound", "IC50, nM"],
 "data": [
  ["CN[C@@H](C)C(=O)N[C@H](C(=O)N1Cc2cc(NC(=O)c3cccc4c3ccn4C(=O)N[C@H]3C[C@@H](C(=O)N[C@@H]4CCCc5ccccc54)N(C(=O)[C@@H](NC(=O)[C@H](C)NC)C(C)(C)C)C3)ccc2C[C@H]1C(=O)N[C@@H]1CCCc2ccccc21)C(C)(C)C", 21],
  ["CN[C@@H](C)C(=O)N[C@H](C(=O)N1C[C@@H](NC(=O)c2ccc(C(=O)Nc3ccc4c(c3)CN(C(=O)[C@@H](NC(=O)[C@H](C)NC)C(C)(C)SCC(=O)N3CCCCC3)[C@H](C(=O)N[C@@H]3CCCc5ccccc53)C4)cc2)C[C@H]1C(=O)N[C@@H]1CCCc2ccccc21)C(C)(C)C", 18],
  ["CN[C@@H](C)C(=O)N[C@H](C(=O)N1Cc2cc(NC(=O)c3ccc(C(=O)N[C@H]4C[C@@H](C(=O)N[C@@H]5CCCc6ccccc65)N(C(=O)[C@@H](NC(=O)[C@H](C)NC)C(C)(C)C)C4)cc3)ccc2C[C@H]1C(=O)N[C@H](C)c1ccccc1F)C(C)(C)C", 12],
  ["CN[C@@H](C)C(=O)N[C@H](C(=O)N1C[C@@H](NC(=O)c2ccc(C(=O)Nc3ccc4c(c3)CN(C(=O)[C@@H](NC(=O)[C@H](C)NC)C(C)(C)SCC(=O)N(C)C)[C@H](C(=O)N[C@@H]3CCCc5ccccc53)C4)cc2)C[C@H]1C(=O)N[C@@H]1CCCc2ccccc21)C(C)(C)C", 10],
  ["CN[C@@H](C)C(=O)N[C@H](C(=O)N1C[C@@H](NC(=O)c2ccc(C(=O)Nc3ccc4c(c3)CN(C(=O)[C@@H](NC(=O)[C@H](C)NC)C(C)(C)SCC(=O)N(C)Cc3cccc(F)c3)[C@H](C(=O)N[C@@H]3CCCc5ccccc53)C4)cc2)C[C@H]1C(=O)N[C@@H]1CCCc2ccccc21)C(C)(C)C", 58],
  ["CN[C@@H](C)C(=O)N[C@H](C(=O)N1C[C@@H](NC(=O)c2ccc(C(=O)Nc3ccc4c(c3)CN(C(=O)[C@@H](NC(=O)[C@H](C)NC)C(C)(C)SCC(=O)N3CCOCC3)[C@H](C(=O)N[C@@H]3CCCc5ccccc53)C4)cc2)C[C@H]1C(=O)N[C@@H]1CCCc2ccccc21)C(C)(C)C", 16]
]}

Now consider the entry below.
Query block: I have this compound here, CCN[C@@H](C)C(=O)N[C@H](C(=O)N1Cc2cc(OCc3ccc(C(=O)NC4C[C@@H](C(=O)NC5CCCc6ccccc65)N(C(=O)[C@@H](NC(=O)[C@H](C)NC)C(C)(C)C)C4)cc3)ccc2C[C@H]1C(=O)NC1CCCc2ccccc21)C(C)(C)C (stereo partly shown) , and I need its recorded IC50.
Result block: 65

====

target: His-BIR2-3 (125-356, C202A/C213G, XIAP) (Homo sapiens (Human), UniProt P98170, C202A/C213G); assay: XIAP-BIR2-3 Dimeric SMAC Peptide Homogeneous Time Resolved Fluorescence (HTRF) Assay; conditions: fluorescein labeled dimeric SMAC peptide
Kindly supply the reported pIC50 values for the records listed here.
Answers are plain numbers, as −log10 of the molar value.

{"columns": ["Compound", "Result type", "Quantitative readout"],
 "data": [
  ["CN[C@@H](C)C(=O)N[C@H](C(=O)N1C[C@@H](NC(=O)c2ccc(C(=O)Nc3ccc4c(c3)CN(C(=O)[C@@H](NC(=O)[C@H](C)NC)C(C)(C)SCc3ncc(C(C)(C)C)o3)[C@H](C(=O)N[C@@H]3CCCc5ccccc53)C4)cc2)C[C@H]1C(=O)N[C@@H]1CCCc2ccccc21)C(C)(C)C [Example 68]", "pIC50", 6.80],
  ["CN[C@@H](C)C(=O)N[C@H](C(=O)N1C[C@@H](NC(=O)c2ccc(C(=O)Nc3ccc4c(c3)CN(C(=O)[C@@H](NC(=O)[C@H](C)NC)C(C)(C)SCCO)[C@H](C(=O)N[C@@H]3CCCc5ccccc53)C4)cc2)C[C@H]1C(=O)N[C@@H]1CCCc2ccccc21)C(C)(C)C [Example 67]", "pIC50", 8.22],
  ["CN[C@@H](C)C(=O)N[C@H](C(=O)N1C[C@@H](NC(=O)c2ccc(C(=O)Nc3ccc4c(c3)CN(C(=O)[C@@H](NC(=O)[C@H](C)NC)C(C)(C)SCC(=O)OC)[C@H](C(=O)N[C@@H]3CCCc5ccccc53)C4)cc2)C[C@H]1C(=O)N[C@@H]1CCCc2ccccc21)C(C)(C)C [Example 56]", "pIC50", 7.92],
  ["CN[C@@H](C)C(=O)N[C@H](C(=O)N1C[C@@H](NC(=O)c2ccc(C(=O)Nc3ccc4c(c3)CN(C(=O)[C@@H](NC(=O)[C@H](C)NC)C(C)(C)SCC(=O)Nc3nccs3)[C@H](C(=O)N[C@@H]3CCCc5ccccc53)C4)cc2)C[C@H]1C(=O)N[C@@H]1CCCc2ccccc21)C(C)(C)C [Example 60]", "pIC50", 7.66],
  ["CN[C@@H](C)C(=O)N[C@H](C(=O)N1C[C@@H](NC(=O)c2ccc(C(=O)Nc3ccc4c(c3)CN(C(=O)[C@@H](NC(=O)[C@H](C)NC)C(C)(C)SCC(=O)NCCO)[C@H](C(=O)N[C@@H]3CCCc5ccccc53)C4)cc2)C[C@H]1C(=O)N[C@@H]1CCCc2ccccc21)C(C)(C)C [Example 63]", "pIC50", 8.30]
]}

Now consider the entry below.
Query block: I have this compound here, CN[C@@H](C)C(=O)N[C@H](C(=O)N1Cc2cc(C(=O)Nc3nc(C(=O)N[C@H]4C[C@@H](C(=O)N[C@@H]5CCCc6ccccc65)N(C(=O)[C@@H](NC(=O)[C@H](C)NC)C(C)(C)C)C4)co3)ccc2C[C@H]1C(=O)N[C@@H]1CCCc2ccccc21)C(C)(C)C [Example 22] , and I need its recorded pIC50.
Result block: 8.40

====

molecular target: His-BIR2-3 (125-356, C202A/C213G, XIAP) (Homo sapiens (Human), UniProt P98170, C202A/C213G); assay: XIAP-BIR2-3 Dimeric SMAC Peptide Homogeneous Time Resolved Fluorescence (HTRF) Assay; format: binding; conditions: fluorescein labeled dimeric SMAC peptide
Kindly supply the reported pIC50 values for the records listed here.
Answers are plain numbers, as −log10 of the molar value.

{"columns": ["Cpd smiles", "pIC50"],
 "data": [
  ["CN[C@@H](C)C(=O)N[C@H](C(=O)N1C[C@@H](NC(=O)c2ccc(C(=O)Nc3ccc4c(c3)CN(C(=O)[C@@H](NC(=O)[C@H](C)NC)C(C)(C)SCC(=O)O)[C@H](C(=O)N[C@@H]3CCCc5ccccc53)C4)cc2)C[C@H]1C(=O)N[C@@H]1CCCc2ccccc21)C(C)(C)C", 8.22],
  ["CN[C@@H](C)C(=O)N[C@H](C(=O)N1Cc2cc(NC(=O)c3ccc4c(ccn4C(=O)N[C@H]4C[C@@H](C(=O)N[C@@H]5CCCc6ccccc65)N(C(=O)[C@@H](NC(=O)[C@H](C)NC)C(C)(C)C)C4)c3)ccc2C[C@H]1C(=O)N[C@@H]1CCCc2ccccc21)C(C)(C)C", 7.66],
  ["CN[C@@H](C)C(=O)N[C@H](C(=O)N1Cc2cc(C(=O)Nc3ccc4cc(C(=O)N[C@H]5C[C@@H](C(=O)N[C@@H]6CCCc7ccccc76)N(C(=O)[C@@H](NC(=O)[C@H](C)NC)C(C)(C)C)C5)[nH]c4c3)ccc2C[C@H]1C(=O)N[C@@H]1CCCc2ccccc21)C(C)(C)C", 7.48]
]}

Now consider the entry below.
Query block: I have this compound here, CN[C@@H](C)C(=O)N[C@H](C(=O)N1C[C@@H](NC(=O)c2ccc(C(=O)Nc3ccc4c(c3)CN(C(=O)[C@@H](NC(=O)[C@H](C)NC)C(C)(C)SC)[C@H](C(=O)N[C@@H]3CCCc5ccccc53)C4)cc2)C[C@H]1C(=O)N[C@@H]1CCCc2ccccc21)C(C)(C)C , and I need its recorded pIC50.
Result block: 8.40

All values here come from patent US9783573B2.
